B1: unnamed (parent)
chain 1: SIDPADLDESWDYIFETTESPSSD
chain 2: MSHSGAAIFEKVSGIIAINEDVSPAELTWRSTDGDKVHTVVLSTIDKLQATPASSEKMMLRLIGKVDESKKRKDNEGNEVVPKPQRHMFSFNNRTVMDNIKMTLQQIISRYKDAD

Variants of: B1
test_summary: ITC
stated_conditions: with partner chain of the complex shown; 25°C in a 20 mM Tris pH 7.4
property: Kd (µM)
Answer in µM, number only, no unit symbol.

Given the variant chain 1 I14S , write its reported Kd.
4.2
